# System: CRL-1459
# EXPERIMENT NOTES: MTT cytotoxicity assay, CRL-1459 normal colon epithelial cells
# Type: cell-based
# EXPERIMENTAL CONDITIONS: Homo sapiens, normal colon epithelial cell line, means ± SDs of three independent experiments, read-out: IC50 ± SD, Non-Prostate Cells, CRL-1459
pIC50: −log10 of the molar value.
ASSAY READOUT: pIC50

| COMPOUND | ASSAY READOUT | VALUE OBSERVED |
| --- | --- | --- |
| COc1cccc(-c2nc3sc4c(c3c(=O)[nH]2)CCCC4)c1 [RP9] | pIC50 | < 4.00 |

Give measured pIC50 for every item shown.
1. O=c1[nH]c(-c2ccc(Cl)cc2)nc2sc3c(c12)CCCC3 [RP3]
2. COc1ccc(-c2nc3sc4c(c3c(=O)[nH]2)CCCC4)cc1OC [RP11]

Response:
["< 4.00", "< 4.00"]

Entry source: paper PMC6563099
